- targetDesc: Aβ42 (Homo sapiens)
- experimentSummary: Th-T (thioflavin-T) assay of Aβ42 aggregation
- Format: biochemical
- conditionInfo: reading M108; compound at 50 (head suffix _50)
For each of the compounds below, state its Th-T fluorescence, mean of three wells (Fig. 7a).
Answers are plain numbers.

Each compound below has a reported value. Please supply its Th-T fluorescence, mean of three wells (Fig. 7a).
1. C=C1CCC2C(C)(CCC=C(C)C)C(O)CCC2(C)C1Cc1c(OC)oc(C)c(C(=O)OC)c1=O (centres unmarked)
2. C=C1CCC2C(C)(CCC=C(C)C)C(O)CCC2(C)C1Cc1c(OC)oc(CO)c(C(=O)OC)c1=O (centres unmarked)
3. C=C1CCC2C(C)(CCC=C(C)C)C(O)CCC2(C)C1Cc1c(OC)oc(CO)c(C)c1=O (centres unmarked)
4. C=C1CC[C@@H]2[C@](C)(CC[C@H]3O[C@H](C=C(C)C)C[C@@]23C)[C@@H]1Cc1c(OC)oc(CO)c(C)c1=O
5. C=C1CC[C@@H]2[C@](C)(CC[C@H]3O[C@H](C=C(C)C)C[C@@]23C)[C@@H]1Cc1c(OC)oc(CO)c(C(=O)OC)c1=O

[1.239, 0.4722, 1.438, 2.097, 0.4805]

* * *

- experimentSummary: cytotoxicity in Drosophila l(2)mbn cells
- Format: cell-based
- conditionInfo: Drosophila, l(2)mbn cells (larval blood cell-derived), 0.04 µM, replicate 1, relative to DMSO 1%, read-out: % viability, viability 1
measurementKind: viability at 0.04 µM (%)
One number for each entry, in %.

{"columns": ["compound", "measurementKind", "unitLabel", "measuredValue"],
 "data": [
  ["C=C1CC[C@@H]2[C@](C)(CC[C@H]3O[C@H](C=C(C)C)C[C@@]23C)[C@@H]1Cc1c(OC)oc(CO)c(C)c1=O", "viability at 0.04 µM", "%", 95.7],
  ["C=C1CC[C@H]2[C@]3(C)C[C@H](C=C(C)C)O[C@H]3CC[C@]2(C)[C@@H]1Cc1c(O)c(C)c(C)oc1=O", "viability at 0.04 µM", "%", 126],
  ["C=C1CCC2C(C)(CCC=C(C)C)C(O)CCC2(C)C1Cc1c(OC)oc(CO)c(C)c1=O (stereo not shown)", "viability at 0.04 µM", "%", 139],
  ["C=C1CCC2C(C)(CC(=O)C=C(C)C)C(O)CCC2(C)C1Cc1c(O)c(C)c(C)oc1=O (stereo not shown)", "viability at 0.04 µM", "%", 135],
  ["C=C1CC[C@H]2[C@]3(C)C[C@H](C=C(C)C)O[C@H]3CC[C@]2(C)[C@@H]1Cc1c(OC)oc(CO)c(C)c1=O", "viability at 0.04 µM", "%", 116]
]}

Each compound below has a reported value. Please supply its viability at 0.04 µM.
1. C=C1CCC2C(C)(CC(=O)C=C(C)C)C(O)CCC2(C)C1Cc1c(OC)oc(CO)c(C)c1=O (stereo not shown)
2. C=C1CC[C@H]2[C@]3(C)C[C@H](C=C(C)C)O[C@H]3CC[C@]2(C)[C@@H]1Cc1c(OC)oc(C)c(C)c1=O

[154, 135]

* * *

- targetDesc: Aβ42 (Homo sapiens, UniProt P05067)
- Sequence (P05067 672-713): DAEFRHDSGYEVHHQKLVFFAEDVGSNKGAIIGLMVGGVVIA
- experimentSummary: Th-T (thioflavin-T) assay of Aβ42 aggregation
- Format: biochemical
- conditionInfo: time course, reading M66
For each of the compounds below, state its Th-T fluorescence, mean of three wells.
Answers are plain numbers.

{"columns": ["compound", "targetDesc", "measurementKind", "measuredValue"],
 "data": [
  ["CC(C)=CCC/C(C)=C/CC/C(C)=C/CC/C(C)=C/Cc1c(O)c(C)c(C)oc1=O", "Aβ42 (Homo sapiens, UniProt P05067)", "Th-T fluorescence, mean of three wells", 2.938]
]}

Each compound below has a reported value. Please supply its Th-T fluorescence, mean of three wells.
1. C=C1CC[C@@H]2[C@](C)(CC[C@H]3O[C@H](C=C(C)C)C[C@@]23C)[C@@H]1Cc1c(O)c(C)c(C)oc1=O
2. C=C1CCC2C(C)(CC(=O)C=C(C)C)C(O)CCC2(C)C1Cc1c(OC)oc(CO)c(C)c1=O (stereo not shown)
3. C=C1CC[C@H]2[C@]3(C)C[C@@H](C=C(C)C)O[C@H]3CC[C@]2(C)[C@@H]1Cc1c(OC)oc(CO)c(C)c1=O
4. C=C1CCC2C(C)(CC(=O)C=C(C)C)C(O)CCC2(C)C1Cc1c(OC)oc(C)c(C)c1=O (stereo not shown)
5. C=C1CCC2C(C)(CCC=C(C)C)C(=O)CCC2(C)C1Cc1c(O)c(C)c(C)oc1=O (stereo not shown)
6. C=C1CCC2C(C)(CC(=O)C=C(C)C)C(O)CCC2(C)C1Cc1c(O)c(C)c(C)oc1=O (stereo not shown)

1. 3.124
2. 3.629
3. 3.684
4. 3.755
5. 2.247
6. 3.5992
